measured.on: recombinant human HDAC3 (Homo sapiens, UniProt O15379)
Construct: purchased BPS Biosciences
Sequence (O15379 whole entry): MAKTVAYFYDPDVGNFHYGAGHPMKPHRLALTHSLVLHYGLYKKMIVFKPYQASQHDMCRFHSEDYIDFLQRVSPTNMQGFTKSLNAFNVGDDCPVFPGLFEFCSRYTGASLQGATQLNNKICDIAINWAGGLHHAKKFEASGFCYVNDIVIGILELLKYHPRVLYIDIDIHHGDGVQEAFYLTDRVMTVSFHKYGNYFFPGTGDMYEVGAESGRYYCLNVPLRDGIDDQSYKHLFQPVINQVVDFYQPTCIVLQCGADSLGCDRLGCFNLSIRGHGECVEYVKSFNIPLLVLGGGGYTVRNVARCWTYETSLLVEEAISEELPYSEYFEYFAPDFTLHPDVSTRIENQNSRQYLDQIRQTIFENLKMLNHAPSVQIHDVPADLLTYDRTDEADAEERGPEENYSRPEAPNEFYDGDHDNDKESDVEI
Sequence (Q9Y618 395-489 partner limits assumed): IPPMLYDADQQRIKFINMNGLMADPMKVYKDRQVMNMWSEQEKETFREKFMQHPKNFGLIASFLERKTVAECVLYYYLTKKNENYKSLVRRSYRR
protocol.details: 384-well fluorometric deacetylase assay (substrate MAZ1600), HDAC3
Type: biochemical
test.settings: rate of reaction (slope); DMSO control 54625
parameter.measured: HDAC3 slope

I have 3 molecules here; please give me HDAC3 slope for each one.
1. Oc1cc2c(c(Cl)c1O)CCNC[C@@H]2c1ccccc1 [R(+)-SKF- 81297]
2. NC(C(=O)O)c1nnn[nH]1 (racemic)
3. CC1(C)S[C@@H]2[C@H](NC(=O)[C@H](N)c3ccccc3)C(=O)N2[C@H]1C(=O)O [Ampicillin trihydrate]

Solution:
66733
56930
56660

Hi, could you look up HDAC3 slope for each item in my list?
1. COc1cc([C@@H]2c3cc4c(cc3[C@H](O)[C@H]3COC(=O)[C@H]23)OCO4)cc(OC)c1OC [Podophyllo toxin, podophyllotoxin]
2. CP(=O)(O)CCCN [SK&F 97541]
3. C[C@](N)(Cc1ccc(O)c(O)c1)C(=O)O [Methyldopa (L,-)]
4. CC(O)(P(=O)([O-])O)P(=O)([O-])O.[Na+].[Na+] [Etidronic acid, disodium salt]

Solution:
53416
54915
60891
58286

Could you tell me HDAC3 slope for each of these molecules? They are listed below.
1. O=C(O)[C@H]1C[C@@H](CP(=O)(O)O)CCN1 [CGS 19755]
2. NCC(CC(=O)O)c1ccc(Cl)s1 (racemic)

Solution:
57057
54049
